Value source: ChEMBL document CHEMBL1156829

CC50 values, listed per item
# assay-remarks: NOVARTIS: Cytotoxicity against human hepatocellular carcinoma cell line (Huh7)
# Format: toxicity, cell-based, Huh-7
# test-context: Huh7 cells (hepatocellular carcinoma cell line)
Form entry: value (µM) — number only.

Recorded results for 8 compounds are shown here.
compound: Clc1cccc(CNC2CCN(CCc3ccccc3)CC2)c1
readout-units: µM
meas-value: 3.04
//
compound: O=[N+]([O-])c1ccc2nc(NC3CCCCC3)c(NC3CCCCC3)nc2c1
readout-units: µM
meas-value: 14.7
//
compound: Cc1ccc2[nH]c3c(NCCCN(C)C)ncnc3c2c1
readout-units: µM
meas-value: 42
//
compound: CN(C)CC(O)Cn1c2ccccc2c2ccccc21 (stereo unspecified)
readout-units: µM
meas-value: 52.8
//
compound: CN(C)CCCNc1ncnc2c1[nH]c1ccc(Cl)cc12
readout-units: µM
meas-value: 20.7
//
compound: Cc1cc(C)cc(NC(=S)NNc2ccnc3cc(Cl)ccc23)c1
readout-units: µM
meas-value: 67.7
//
compound: N#Cc1ccc(NC(=O)NC2CC3CCCC(C2)N3CCc2ccccc2)cc1 (stereo unspecified)
readout-units: µM
meas-value: 48.6
//
compound: CC(=O)N(C1=C(N2CCCC2)C(=O)c2ccccc2C1=O)c1cccc(F)c1
readout-units: µM
meas-value: 29

# next compound below
Enquiry: Determine from records and report CC50 for CCOc1cc2c(cc1OCC)C(c1cc(OC)c(O)cc1Cl)NCC2 (stereo unspecified)
Return: 74.2
